- systemTested: T1, drUvrD FL (WT) (Deinococcus radiodurans, UniProt Q9RTI9 1-745)
- T1 sequence: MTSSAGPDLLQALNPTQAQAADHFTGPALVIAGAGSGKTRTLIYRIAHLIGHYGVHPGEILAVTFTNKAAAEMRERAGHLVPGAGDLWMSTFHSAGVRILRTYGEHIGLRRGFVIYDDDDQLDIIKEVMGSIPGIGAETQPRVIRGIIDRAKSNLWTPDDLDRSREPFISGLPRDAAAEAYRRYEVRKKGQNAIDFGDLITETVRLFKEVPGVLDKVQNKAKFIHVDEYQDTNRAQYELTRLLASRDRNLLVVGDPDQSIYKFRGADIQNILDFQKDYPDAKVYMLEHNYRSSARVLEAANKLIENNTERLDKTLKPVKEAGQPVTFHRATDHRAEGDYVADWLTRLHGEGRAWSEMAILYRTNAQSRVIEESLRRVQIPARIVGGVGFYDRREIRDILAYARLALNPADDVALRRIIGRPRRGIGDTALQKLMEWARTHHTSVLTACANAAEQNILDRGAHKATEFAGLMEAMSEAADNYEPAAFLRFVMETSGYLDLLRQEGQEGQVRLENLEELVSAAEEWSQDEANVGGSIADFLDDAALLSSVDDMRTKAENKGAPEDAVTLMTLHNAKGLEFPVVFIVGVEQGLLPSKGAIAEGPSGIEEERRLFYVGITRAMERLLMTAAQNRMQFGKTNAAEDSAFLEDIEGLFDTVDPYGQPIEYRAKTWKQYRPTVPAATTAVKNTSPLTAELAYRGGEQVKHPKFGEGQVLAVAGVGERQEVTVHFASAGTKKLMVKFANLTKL
- assayNotes: fluorescence anisotropy; 1 mM AMPPNP; Fluorescence anisotropy: buffer A (composition not in material) + 0.05% Tween 20, 0.1 mg/mL BSA, 1 mM AMPPNP; 2.5 nM DNA, 0-8 µM protein, 80 µl, room temperature; single-site fit
- testContext: protein: recombinant; tags: N-terminal His-tag cleaved with TEV (pET151d); label: fluorescein (internal dT12); 25 bp duplex, 5' overhang 15 nt (dT15) on strand 2; other end blunt
measuredQuantity: pKd
Numbers only, as −log10 of the molar value.

Qu. Fill blank: measured pKd of the binder 5'-tailed dsDNA (H1T12/H5-15) (dsDNA, fluorescein-dT at position 12 of strand 1) DNA 1: TCGGTACGACCTGCGAGCACTGCTT DNA 2: TTTTTTTTTTTTTTTAAGCAGTGCTCGCAGGTCGTACCGA is ____.
Ans. 6.32
